A collection of compounds and their measured inhibition at 1 h, 0.1 µM
# target or system: CYP11B (Rattus norvegicus, UniProt P15393+P30099)
# procedure summary: Inhibition of Sprague-Dawley rat adrenal mitochondrial CYP11B assessed as decrease in conversion of 11-deoxycortisol to cortisol at 100 nM incubated for 60 mins by ELISA relative to control
# Type: protein assay
# measurement parameters: adrenal mitochondria, probe 11-deoxycortisol

{"compound": "C[C@]12CCNC(=O)C=C1CC[C@@H]1[C@@H]2CC[C@]2(C)C(n3cncn3)=CC[C@@H]12", "target or system": "CYP11B (Rattus norvegicus, UniProt P15393+P30099)", "inhibition at 1 h, 0.1 µM": "< 32%"}
{"compound": "CN1CC[C@@]2(C)C(=CC1=O)CC[C@@H]1[C@@H]2CC[C@]2(C)C(n3ccnc3)=CC[C@@H]12", "target or system": "CYP11B (Rattus norvegicus, UniProt P15393+P30099)", "inhibition at 1 h, 0.1 µM": "≥ 50%"}
{"compound": "C[C@]12CC[C@H]3[C@@H](CCC4=CC(=O)CC[C@@]43C)C1=CC=C2n1ccnc1", "target or system": "CYP11B (Rattus norvegicus, UniProt P15393+P30099)", "inhibition at 1 h, 0.1 µM": "≥ 50%"}
{"compound": "CN1C(=O)C[C@@]2(C)C1=CC[C@@H]1[C@@H]2CC[C@]2(C)C(n3ccnc3)=CC[C@@H]12", "target or system": "CYP11B (Rattus norvegicus, UniProt P15393+P30099)", "inhibition at 1 h, 0.1 µM": "≥ 50%"}
{"compound": "C[C@]12CC[C@H]3[C@@H](CC[C@H]4CC(=O)CC[C@@]43C)C1=CC=C2c1cccnc1", "target or system": "CYP11B (Rattus norvegicus, UniProt P15393+P30099)", "inhibition at 1 h, 0.1 µM": "≥ 50%"}
{"compound": "Cc1ccncc1C1=CC[C@H]2[C@@H]3CC[C@H]4CC(=O)NCC[C@]4(C)[C@H]3CC[C@]12C", "target or system": "CYP11B (Rattus norvegicus, UniProt P15393+P30099)", "inhibition at 1 h, 0.1 µM": "< 32%"}
{"compound": "CC(=O)N1CCC[C@@]2(C)[C@@H](CC[C@@H]3[C@@H]2CC[C@]2(C)C(n4ccnc4)=CC[C@@H]32)C1", "target or system": "CYP11B (Rattus norvegicus, UniProt P15393+P30099)", "inhibition at 1 h, 0.1 µM": "≥ 50%"}
{"compound": "C[C@]12CC[C@H]3[C@@H](CC=C4C[C@@H](O)CC[C@@]43C)C1=CC=C2c1cccnc1", "target or system": "CYP11B (Rattus norvegicus, UniProt P15393+P30099)", "inhibition at 1 h, 0.1 µM": "< 32%"}
{"compound": "CCC(=O)N1CCC[C@@]2(C)C(CC[C@@H]3[C@@H]2CC[C@]2(C)C(c4cccnc4)=CC[C@@H]32)C1 (stereo partly drawn)", "target or system": "CYP11B (Rattus norvegicus, UniProt P15393+P30099)", "inhibition at 1 h, 0.1 µM": "≥ 50%"}
{"compound": "CN1CC=C2CC[C@@H]3[C@H](CC[C@]4(C)C(n5ccnc5)=CC[C@@H]34)[C@@]2(C)CC1", "target or system": "CYP11B (Rattus norvegicus, UniProt P15393+P30099)", "inhibition at 1 h, 0.1 µM": "< 32%"}
{"compound": "C[C@]12CC[C@H]3[C@@H](CC=C4C[C@H](NC(=O)C5CC5)CC[C@@]43C)C1=CC=C2n1ccnc1", "target or system": "CYP11B (Rattus norvegicus, UniProt P15393+P30099)", "inhibition at 1 h, 0.1 µM": "≥ 50%"}
{"compound": "CCNC(=O)N[C@@H]1CC[C@@]2(C)C(=CC[C@@H]3[C@@H]2CC[C@]2(C)C(n4ccnc4)=CC[C@@H]32)C1", "target or system": "CYP11B (Rattus norvegicus, UniProt P15393+P30099)", "inhibition at 1 h, 0.1 µM": "≥ 50%"}
{"compound": "C[C@]12CCCN(S(C)(=O)=O)CC1CC[C@@H]1[C@@H]2CC[C@]2(C)C(n3ccnc3)=CC[C@@H]12 (stereo partly drawn)", "target or system": "CYP11B (Rattus norvegicus, UniProt P15393+P30099)", "inhibition at 1 h, 0.1 µM": "≥ 50%"}
{"compound": "CN1C(=O)CC[C@@]2(C)C1=CC[C@@H]1[C@@H]2CC[C@]2(C)C(n3ccnc3)=CC[C@@H]12", "target or system": "CYP11B (Rattus norvegicus, UniProt P15393+P30099)", "inhibition at 1 h, 0.1 µM": "≥ 50%"}
{"compound": "COC(=O)N[C@@H]1CC[C@@]2(C)C(=CC[C@@H]3[C@@H]2CC[C@]2(C)C(n4ccnc4)=CC[C@@H]32)C1", "target or system": "CYP11B (Rattus norvegicus, UniProt P15393+P30099)", "inhibition at 1 h, 0.1 µM": "< 32%"}
{"compound": "C[C@]12CC[C@@H](NC(=O)C3CC3)CC1=CC[C@@H]1[C@@H]2CC[C@]2(C)C(n3ccnc3)=CC[C@@H]12", "target or system": "CYP11B (Rattus norvegicus, UniProt P15393+P30099)", "inhibition at 1 h, 0.1 µM": "≥ 50%"}
{"compound": "CCC(=O)N1CCC2CC[C@@H]3[C@H](CC[C@]4(C)C(c5cccnc5)=CC[C@@H]34)[C@@]2(C)CC1 (stereo partly drawn)", "target or system": "CYP11B (Rattus norvegicus, UniProt P15393+P30099)", "inhibition at 1 h, 0.1 µM": "< 32%"}
{"compound": "CCOc1cncc(C2=CC[C@H]3[C@@H]4CC=C5N(C)C(=O)C[C@]5(C)[C@H]4CC[C@]23C)c1", "target or system": "CYP11B (Rattus norvegicus, UniProt P15393+P30099)", "inhibition at 1 h, 0.1 µM": "≥ 50%"}

* * *

# target or system: CYP21 (steroid 21-hydroxylase) (Homo sapiens)
# Sequence (P08686 whole entry): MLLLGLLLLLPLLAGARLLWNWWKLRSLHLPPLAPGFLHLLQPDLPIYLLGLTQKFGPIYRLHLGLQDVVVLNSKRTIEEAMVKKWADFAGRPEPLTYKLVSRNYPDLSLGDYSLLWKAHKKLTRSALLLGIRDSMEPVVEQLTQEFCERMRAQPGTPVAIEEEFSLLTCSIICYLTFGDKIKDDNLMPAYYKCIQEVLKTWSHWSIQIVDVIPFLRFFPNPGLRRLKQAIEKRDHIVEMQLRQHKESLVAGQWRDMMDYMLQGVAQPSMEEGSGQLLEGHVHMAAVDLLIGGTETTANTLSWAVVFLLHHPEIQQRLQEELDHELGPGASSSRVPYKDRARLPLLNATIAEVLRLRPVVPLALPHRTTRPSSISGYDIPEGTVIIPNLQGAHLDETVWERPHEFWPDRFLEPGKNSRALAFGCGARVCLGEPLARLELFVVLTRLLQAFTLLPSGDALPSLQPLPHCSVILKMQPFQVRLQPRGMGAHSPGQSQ
# procedure summary: Inhibition of human CYP21 transfected in HEK293 cells assessed as decrease in conversion of progesterone to 11-deoxycorticosterone preincubated for 5 hrs followed by progesterone addition measured after 20 hrs by ELISA
# Assay type: cell-based
# Design: concentration or dose not given beside the values
# measurement parameters: HEK293 cells transfected with human CYP21, probe progesterone

{"molecule": "C[C@]12CCC(=O)C=C1C(C1CC1)C[C@@H]1[C@@H]2CC[C@]2(C)C(c3cccnc3)=CC[C@@H]12 (some centres undefined)", "inhibition at 20 h": "< 10%"}
{"molecule": "CNC1CC[C@@]2(C)C(CCC3[C@@H]2CC[C@]2(C)C(c4cncc(C)c4)=CC[C@@H]32)C1 (single isomer, unassigned)", "inhibition at 20 h": "10 to 50%"}
{"molecule": "C[C@]12CC[C@H]3[C@@H](CC(Nc4nccs4)C45CC4CC[C@]35C)[C@@H]1CC=C2c1cccnc1 (some centres undefined)", "inhibition at 20 h": "10 to 50%"}
{"molecule": "C[C@@]1(O)CC[C@@]2(C)C(=CC[C@@H]3[C@@H]2CC[C@]2(C)C(c4cccnc4)=CC[C@@H]32)C1", "inhibition at 20 h": "≥ 50%"}

* * *

# target or system: Steroid 17-alpha-hydroxylase/17,20 lyase (Homo sapiens, UniProt P05093)
# Sequence (P05093 whole entry): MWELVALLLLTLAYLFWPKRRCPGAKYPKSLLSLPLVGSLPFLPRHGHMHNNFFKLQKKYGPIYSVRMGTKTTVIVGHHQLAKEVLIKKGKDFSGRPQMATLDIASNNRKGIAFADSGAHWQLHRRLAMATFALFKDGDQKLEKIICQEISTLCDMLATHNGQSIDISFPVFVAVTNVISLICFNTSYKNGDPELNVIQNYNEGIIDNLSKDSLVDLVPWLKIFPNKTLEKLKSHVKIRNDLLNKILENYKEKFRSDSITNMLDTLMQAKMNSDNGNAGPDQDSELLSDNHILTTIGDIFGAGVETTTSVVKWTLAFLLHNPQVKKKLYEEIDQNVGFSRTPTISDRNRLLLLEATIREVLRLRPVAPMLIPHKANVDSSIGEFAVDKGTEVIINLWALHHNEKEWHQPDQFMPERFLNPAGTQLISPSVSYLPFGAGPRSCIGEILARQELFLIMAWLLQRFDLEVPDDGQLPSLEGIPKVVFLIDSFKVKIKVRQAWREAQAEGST
# procedure summary: Inhibition of CYP17 in human H295R cells assessed as decrease in testosterone levels after 24 hrs by ELISA
# Assay type: cell-based

{"compound": "C[C@]12CC[C@H]3[C@@H](CCC4=CC(=O)C=C[C@@]43C)C1=CC=C2c1cccnc1", "IC50": "≤ 15 nM"}
{"compound": "C[C@]12CCNC(=O)C=C1CC[C@@H]1[C@@H]2CC[C@]2(C)C(c3cncc(C(F)F)c3)=CC[C@@H]12", "IC50": "≤ 15 nM"}
{"compound": "Cc1ccncc1C1=CC[C@H]2[C@@H]3CC[C@H]4CC(=O)NCC[C@]4(C)[C@H]3CC[C@]12C", "IC50": "≤ 15 nM"}
{"compound": "C[C@]12CCC(=O)C=C1C(F)CC1[C@@H]2CC[C@]2(C)C(c3cccnc3)=CC[C@@H]12 (single isomer, unassigned)", "IC50": "≤ 15 nM"}
{"compound": "C[C@]12CCC(F)CC1=CC[C@@H]1[C@@H]2CC[C@]2(C)C(c3cncc(F)c3)=CC[C@@H]12 (stereo not given in full)", "IC50": "≤ 15 nM"}
{"compound": "C[C@]12CC(O)CC1CC[C@@H]1[C@@H]2CC[C@]2(C)C(c3cncc(F)c3)=CC[C@@H]12 (stereo not given in full)", "IC50": "≤ 15 nM"}
{"compound": "CC(=O)O[C@H]1CC[C@@]2(C)[C@@H](CC[C@@H]3[C@@H]2CC[C@]2(C)C(n4ccnn4)=CC[C@@H]32)C1", "IC50": "≤ 15 nM"}
{"compound": "C[C@]12CCNC(=O)C[C@@H]1CC[C@@H]1[C@@H]2CC[C@]2(C)C(n3ccnn3)=CC[C@@H]12", "IC50": "≤ 15 nM"}
{"compound": "CC1C[C@@H]2[C@H](CC[C@]3(C)C(c4cccnc4)=CC[C@@H]23)[C@@]2(C)CCC(=O)C=C12 (stereo not given in full)", "IC50": "≤ 15 nM"}
{"compound": "CC1C[C@@H]2[C@H](CC[C@]3(C)C(c4cncc(F)c4)=CC[C@@H]23)[C@@]2(C)CCC(=O)C=C12 (stereo not given in full)", "IC50": "≤ 15 nM"}
{"compound": "C[C@]12CCC(=O)C=C1C1(CC1)C[C@@H]1[C@@H]2CC[C@]2(C)C(c3cccnc3)=CC[C@@H]12", "IC50": "≤ 15 nM"}
{"compound": "C[C@]12CC[C@H]3[C@@H](CCC45CC4C(O)CC[C@]35C)[C@@H]1CC=C2c1cccnc1 (stereo not given in full)", "IC50": "≤ 15 nM"}
{"compound": "C[C@]12CC[C@H](O)CC1=CC[C@@H]1[C@@H]2CC[C@]2(C)C(c3cccnc3)=CC[C@@H]12", "IC50": "≤ 15 nM"}
{"compound": "Cc1ccncc1C1=CC=C2[C@@H]3CC=C4C[C@@H](O)CC[C@]4(C)[C@H]3CC[C@]12C", "IC50": "15 to 100 nM"}
{"compound": "C[C@]12CCC(=O)C=C1C1CC1[C@@H]1[C@@H]2CC[C@]2(C)C(c3cncc(F)c3)=CC[C@@H]12 (stereo not given in full)", "IC50": "≤ 15 nM"}
